Data origin, for the record: the NIST ThermoML archive (doi:10.1021/je7001946)

# assayNotes: mn = molality of the nth substance listed, in mol/kg
# testParameters: 313.15 K; 101.3 kPa; Liquid; m2 = 0
A collection of molecules and their measured mass density
# number only, unit kg/m3 dropped from output

In [3]: df
Out[3]:
                                   molecule  quantitativeresult
0        CC#N [acetonitrile] + [Br][Co][Br]             760.164
1  CC#N [acetonitrile] + [Cl-].[Cl-].[Zn+2]             760.151
2  CC#N [acetonitrile] + [Br-].[Br-].[Mn+2]             760.148
3        CC#N [acetonitrile] + [Cl][Co][Cl]             760.142

Now for a further molecule.
Param item = CC#N [acetonitrile] + [Br-].[Br-].[Zn+2] ; retrieve measured mass density.
760.159

----------
Let's look at some compounds and their measured mass density.
# assayNotes: mn = molality of the nth substance listed, in mol/kg
# testParameters: 288.15 K; 101.3 kPa; Liquid; m2 = 0
All answers are understood in kg/m3, so give the number only.

# annotated cases, reported mass density shown
>>> print(df.to_string())
                                   compound  reportedproperty  quantitativeresult
0        CC#N [acetonitrile] + [Cl][Co][Cl]      mass density             787.297
1  CC#N [acetonitrile] + [Cl-].[Cl-].[Zn+2]      mass density             787.303
2        CC#N [acetonitrile] + [Br][Co][Br]      mass density             787.315
3  CC#N [acetonitrile] + [Br-].[Br-].[Mn+2]      mass density             787.299

mass density lookup needed for CC#N [acetonitrile] + [Br-].[Br-].[Zn+2] , thanks.
787.313

----------
molecules and their reported mass density
# assayNotes: mn = molality of the nth substance listed, in mol/kg
# testParameters: 293.15 K; 101.3 kPa; Liquid; m2 = 0
Provide the reading as a plain figure in kg/m3.

Use these answered entries as a reference point.
                                   molecule  quantitativeresult
0        CC#N [acetonitrile] + [Br][Co][Br]             781.939
1        CC#N [acetonitrile] + [Cl][Co][Cl]             781.919
2  CC#N [acetonitrile] + [Br-].[Br-].[Mn+2]             781.923

Please report the recorded mass density for CC#N [acetonitrile] + [Cl-].[Cl-].[Zn+2] .
781.922

Now the molecule CC#N [acetonitrile] + [Br-].[Br-].[Zn+2]
781.935

----------
Measured mass density by item
# assayNotes: mn = molality of the nth substance listed, in mol/kg
# testParameters: 303.15 K; 101.3 kPa; Liquid; m2 = 0
Express it in kg/m3; write the number only.

Below are worked cases with known answers.
                                   molecule  measurementunits  quantitativeresult
0  CC#N [acetonitrile] + [Cl-].[Cl-].[Zn+2]             kg/m3             771.095
1        CC#N [acetonitrile] + [Cl][Co][Cl]             kg/m3              771.09
2  CC#N [acetonitrile] + [Br-].[Br-].[Zn+2]             kg/m3             771.106
3        CC#N [acetonitrile] + [Br][Co][Br]             kg/m3             771.112

Entry CC#N [acetonitrile] + [Br-].[Br-].[Mn+2] has what mass density?
771.097

----------
# assayNotes: mn = molality of the nth substance listed, in mol/kg
# testParameters: 298.15 K; 101.3 kPa; Liquid; m2 = 0
Numbers after ± are expanded uncertainties.
reportedProperty: mass density
Record the result as a number with its unit.

>>> print(df.to_string())
                             compound  reportedproperty               result
0  CC#N [acetonitrile] + [Cl][Co][Cl]      mass density  776.518 ± 0.6 kg/m3

Looking for the measured mass density of CC#N [acetonitrile] + [Br][Co][Br] , can you help?
776.538 ± 0.61 kg/m3

// repeat for CC#N [acetonitrile] + [Cl-].[Cl-].[Zn+2] and report
776.522 ± 0.6 kg/m3

Same read-out for CC#N [acetonitrile] + [Br-].[Br-].[Mn+2] ?
776.525 ± 0.61 kg/m3

What do we get for CC#N [acetonitrile] + [Br-].[Br-].[Zn+2] ?
776.535 ± 0.61 kg/m3

----------
Catalogue of mass density values
# assayNotes: mn = molality of the nth substance listed, in mol/kg
# testParameters: 308.15 K; 101.3 kPa; Liquid; m2 = 0
Numbers after ± are expanded uncertainties.
Answer format: value, then unit.

>>> df
                                   compound  reportedproperty                result
0        CC#N [acetonitrile] + [Br][Co][Br]      mass density  765.653 ± 0.63 kg/m3
1  CC#N [acetonitrile] + [Br-].[Br-].[Zn+2]      mass density   765.65 ± 0.62 kg/m3
2  CC#N [acetonitrile] + [Cl-].[Cl-].[Zn+2]      mass density  765.637 ± 0.61 kg/m3
3  CC#N [acetonitrile] + [Br-].[Br-].[Mn+2]      mass density   765.64 ± 0.62 kg/m3

// next item, mass density requested
I would be grateful if you could share the reported mass density for CC#N [acetonitrile] + [Cl][Co][Cl] .
765.631 ± 0.61 kg/m3

----------
# assayNotes: mn = molality of the nth substance listed, in mol/kg
# testParameters: 323.15 K; 101.3 kPa; Liquid; m2 = 0
reportedProperty: mass density (kg/m3)
Number in kg/m3, nothing else.

# annotated cases, reported mass density shown
In [3]: df
Out[3]:
                                   molecule  reportedproperty  measurementunits  quantitativeresult
0  CC#N [acetonitrile] + [Br-].[Br-].[Zn+2]      mass density             kg/m3              749.07
1  CC#N [acetonitrile] + [Br-].[Br-].[Mn+2]      mass density             kg/m3             749.055
2  CC#N [acetonitrile] + [Cl-].[Cl-].[Zn+2]      mass density             kg/m3             749.071
3        CC#N [acetonitrile] + [Cl][Co][Cl]      mass density             kg/m3             749.056

# input molecule: CC#N [acetonitrile] + [Br][Co][Br] ; wanted: its mass density
749.073
